TARGET DESC: Nitric oxide synthase, inducible (Mus musculus)
Sequence (whole entry): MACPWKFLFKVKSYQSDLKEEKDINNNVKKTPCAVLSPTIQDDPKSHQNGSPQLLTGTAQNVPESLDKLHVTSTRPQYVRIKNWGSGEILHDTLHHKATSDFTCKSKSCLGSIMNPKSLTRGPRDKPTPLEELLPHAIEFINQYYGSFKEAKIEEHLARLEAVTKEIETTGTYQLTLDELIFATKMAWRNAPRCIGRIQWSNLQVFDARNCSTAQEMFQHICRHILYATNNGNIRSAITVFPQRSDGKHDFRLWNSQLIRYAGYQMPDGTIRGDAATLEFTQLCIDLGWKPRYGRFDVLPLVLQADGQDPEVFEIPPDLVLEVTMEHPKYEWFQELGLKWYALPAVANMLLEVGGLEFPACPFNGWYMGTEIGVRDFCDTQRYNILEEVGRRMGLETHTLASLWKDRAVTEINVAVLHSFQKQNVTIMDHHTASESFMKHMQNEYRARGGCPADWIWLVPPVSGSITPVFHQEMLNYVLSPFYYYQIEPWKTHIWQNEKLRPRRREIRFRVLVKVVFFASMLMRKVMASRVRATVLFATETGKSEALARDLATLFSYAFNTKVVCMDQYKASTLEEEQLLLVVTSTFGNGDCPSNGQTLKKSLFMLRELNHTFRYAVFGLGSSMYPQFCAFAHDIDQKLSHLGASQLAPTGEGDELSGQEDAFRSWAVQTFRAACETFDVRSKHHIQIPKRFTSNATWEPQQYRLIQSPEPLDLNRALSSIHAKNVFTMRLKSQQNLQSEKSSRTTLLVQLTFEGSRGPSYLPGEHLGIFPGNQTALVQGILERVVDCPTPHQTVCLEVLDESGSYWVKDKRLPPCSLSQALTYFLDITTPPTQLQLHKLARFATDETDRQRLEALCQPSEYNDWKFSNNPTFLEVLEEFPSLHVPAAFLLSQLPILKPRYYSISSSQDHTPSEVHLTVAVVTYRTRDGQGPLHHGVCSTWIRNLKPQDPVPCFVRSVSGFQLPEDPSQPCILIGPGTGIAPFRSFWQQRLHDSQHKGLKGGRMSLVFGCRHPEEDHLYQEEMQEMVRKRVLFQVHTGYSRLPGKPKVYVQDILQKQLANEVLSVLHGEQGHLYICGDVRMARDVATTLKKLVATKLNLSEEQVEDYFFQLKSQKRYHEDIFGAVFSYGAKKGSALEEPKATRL
PROTOCOL TEXT: Inhibition of iNOS in Mus musculus (mouse) RAW 264.7 cells assessed as inhibition of LPS-induced nitrite production pretreated for 24 hr before stimulation with LPS measured after 18 hr by […]
Parameters: concentration or dose not given beside the values
EXPERIMENTAL PARAMETERS: concentration not given here
Quick rule for you: inhibition at 80% or higher means T, lower means F.

In [3]: df
Out[3]:
                                   compound  label
0  O=C1c2ccccc2C(=O)N1c1cccc([N+](=O)[O-])c1      T
1            CC1=C(C)C(=O)N(Cc2ccccc2N)C1=O      F
2            O=C1c2ccccc2C(=O)N1c1ccc(S)cc1      T
3        Cc1ccc2c(c1)C(=O)N(Cc1ccccc1N)C2=O      T
4  O=C1CCC(N2C(=O)c3ccccc3C2=O)C(=O)N1 (stereo unspecified)      F
5           O=C1c2ccccc2C(=O)N1c1ccc(Cl)cc1      F

Query: // inclusive: inhibition at least 80%? input: Nc1cccc(N2C(=O)C3C4C=CC(CC4)C3C2=O)c1 (stereo unspecified)
Response: F

Query: Same thing, different compound: "Cc1ccc2c(c1)C(=O)N(c1ccc(/N=N\c3ccccc3)cc1)C2=O"
Response: T

Query: Please answer likewise for "Nc1ccc(N2C(=O)c3cccc4cccc(c34)C2=O)cc1"
Response: T

Query: Thanks! And "Nc1cccc(CN2C(=O)c3ccccc3C2=O)c1" ?
Response: T
